Experiment: Cytotoxicity against human Hep2 cells
Type: cell-based, HEp-2
Measured log10(CC50), listed per entry for reference.
measurement_name: log10(CC50) (log10 of the value in µM)

| compound | result_value |
| --- | --- |
| CCOC(=O)Cn1c(=O)c2ccccc2n(Cc2nc3ccccc3n2CCn2cnnn2)c1=O | 0.91 |
| O=C1CS(=O)(=O)c2ccccc2N1Cc1nc2ccccc2n1CCCCF | 2.32 |
| CC(C)CCn1c(CN2C(=O)C(C)(O)c3ccccc32)nc2ccccc21 (stereo unspecified) | 2.00 |
| CC(C)CCn1c(CN2C(=O)C(CC(=O)N(C)C)c3ccccc32)nc2ccccc21 (stereo unspecified) | 0.67 |
| CN(C)CCn1c(CN2C(=O)CCc3ccccc32)nc2ccccc21 | 2.18 |
| CCOC(=O)c1c(OC)c(=O)n(Cc2nc3ccccc3n2CCCCF)c2ccccc12 | 1.79 |
| CN1C(=O)N(Cc2nc3ccccc3n2CCCCF)c2ccccc2S1(=O)=O | 1.94 |
| CC(C)CCn1c(CN2C(=O)N(CC(=O)OC(C)(C)C)S(=O)(=O)c3ccccc32)nc2ccccc21 | 1.26 |
| CN1C(=O)N(Cc2nc3ccccc3n2CCCCO)c2ccccc2S1(=O)=O | 2.34 |
| COC(=O)c1ccc2c(c1)nc(Cn1c(=O)n(C3CC3)c(=O)c3ccccc31)n2CCC(C)C | -0.64 |
| O=c1c2ccccc2n(Cc2nc3ccccc3n2CCCCO)c(=O)n1C1CC1 | 1.63 |
| CC(C)CCn1c(Cn2c(=O)n(C3CC3)c(=O)c3ccccc32)nc2cc(CO)ccc21 | 1.79 |
| CCCCNCc1ccc2c(c1)nc(Cn1c(=O)n(C3CC3)c(=O)c3ccccc31)n2CCC(C)C | 0.62 |
| COc1cc(=O)n(Cc2nc3ccccc3n2CCCCF)c2ccccc12 | 1.77 |
| CC(C)CCn1c(CN2C(=O)N(C3CC3)S(=O)(=O)c3ccccc32)nc2cc(CN)ccc21 | 0.85 |
| CC(C)CCn1c(CN2C(=O)C(CC(=O)NCCc3ccccc3)c3ccccc32)nc2ccccc21 (stereo unspecified) | -0.03 |

The origin of these recorded values is ChEMBL document CHEMBL1149656.
